assayInfo: Plasma protein binding in human by ultrafiltration method
Format: ADME, cell-free
runParameters: read-out: PPB (converted)

# substanceSmiles, fraction unbound
rows = [
    ("Cc1ccc(C(=O)NC2CC2)cc1-c1cc2cnn(-c3ccc(F)cc3F)c2n(C)c1=O", 0.07),
    ("Cc1ccc(C(=O)NC2CC2)cc1-c1cc2cnn(-c3c(F)cccc3F)c2n(C)c1=O", 0.079),
    ("Cn1c(=O)c(-c2cc(C(=O)NC3CC3)ccc2Cl)cc2cnn(-c3c(F)cccc3F)c21", 0.038),
]

* * *

assayInfo: Half life in Sprague-Dawley rat at 2 mg/kg, iv
Format: ADME, organism-based
Design: dose 2 mg/kg, route intravenous
runParameters: in vivo

# substanceSmiles, half-life, h
measured = [
    ("Cc1ccc(C(=O)NC2CC2)cc1-c1cc2cnn(-c3cc(F)ccc3F)c2n(C)c1=O", 2.2),
    ("Cn1c(=O)c(-c2cc(C(=O)NC3CC3)ccc2Cl)cc2cnn(-c3c(F)cccc3F)c21", 6.3),
    ("Cc1ccc(C(=O)NC2CC2)cc1-c1cc2cnn(-c3ccc(F)cc3F)c2n(C)c1=O", 7.7),
    ("Cc1ccc(C(=O)NC2CC2)cc1-c1cc2cnn(-c3c(F)cccc3F)c2n(C)c1=O", 2.7),
    ("Cc1ccc(C(N)=O)cc1-c1cc2cnn(-c3c(F)cccc3F)c2n(C)c1=O", 2.4),
    ("CNc1noc2c(-c3cc4cnn(-c5c(F)cccc5F)c4n(C)c3=O)c(C)ccc12", 3.5),
]

* * *

assayInfo: Trough plasma concentration in porcine type 2 collagen-induced arthritis Lewis rat model at 0.01 to 1 mg/kg, po after 24 hrs
Format: ADME, organism-based
Design: dose 0.01-1 mg/kg, route oral
reportedEndpoint: concentration at 24 h (nM)

# substanceSmiles, result
rows = [
    ("Cc1ccc(C(=O)NC2CC2)cc1-c1cc2cnn(-c3c(F)cccc3F)c2n(C)c1=O", 4.4),
]

* * *

studyTarget: Platelet-derived growth factor receptor alpha (Homo sapiens, UniProt P16234)
Sequence (P16234 whole entry): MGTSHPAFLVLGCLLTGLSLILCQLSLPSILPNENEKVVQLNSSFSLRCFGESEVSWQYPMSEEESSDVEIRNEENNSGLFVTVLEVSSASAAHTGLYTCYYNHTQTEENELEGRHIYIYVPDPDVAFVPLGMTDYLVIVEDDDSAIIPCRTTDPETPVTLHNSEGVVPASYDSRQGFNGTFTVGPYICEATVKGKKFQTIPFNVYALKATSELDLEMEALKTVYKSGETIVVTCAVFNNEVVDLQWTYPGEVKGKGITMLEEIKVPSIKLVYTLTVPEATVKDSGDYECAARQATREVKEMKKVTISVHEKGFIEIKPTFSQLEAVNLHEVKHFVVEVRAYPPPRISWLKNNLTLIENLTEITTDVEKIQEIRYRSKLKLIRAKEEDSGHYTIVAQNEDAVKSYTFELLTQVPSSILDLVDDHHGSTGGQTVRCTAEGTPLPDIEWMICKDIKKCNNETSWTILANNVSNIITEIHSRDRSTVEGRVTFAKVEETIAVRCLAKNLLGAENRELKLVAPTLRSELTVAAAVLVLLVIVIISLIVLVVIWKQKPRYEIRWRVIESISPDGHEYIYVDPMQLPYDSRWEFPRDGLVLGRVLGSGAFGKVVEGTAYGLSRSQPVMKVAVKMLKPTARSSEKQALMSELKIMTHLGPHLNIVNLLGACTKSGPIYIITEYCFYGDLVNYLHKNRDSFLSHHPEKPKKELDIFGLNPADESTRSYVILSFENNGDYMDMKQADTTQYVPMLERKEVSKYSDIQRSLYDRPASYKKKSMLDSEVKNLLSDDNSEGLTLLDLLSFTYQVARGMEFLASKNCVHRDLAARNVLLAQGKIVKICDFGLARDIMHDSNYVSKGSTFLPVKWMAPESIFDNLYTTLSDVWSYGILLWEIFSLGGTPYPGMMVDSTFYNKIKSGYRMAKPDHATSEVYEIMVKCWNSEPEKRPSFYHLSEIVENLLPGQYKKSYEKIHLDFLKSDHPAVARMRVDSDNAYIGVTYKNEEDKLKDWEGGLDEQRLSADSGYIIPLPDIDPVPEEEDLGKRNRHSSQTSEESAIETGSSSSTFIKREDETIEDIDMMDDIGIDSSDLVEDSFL
pKd: −log10 of the molar value.
reportedEndpoint: pKd

# substanceSmiles, result
measured = [
    ("Cc1ccc(C(=O)NC2CC2)cc1-c1cc2cnn(-c3c(F)cccc3F)c2n(C)c1=O", 5.96),
]

* * *

This listing pairs compounds with measured Kd.
studyTarget: Vascular endothelial growth factor receptor 2 (Homo sapiens, UniProt P35968)
Sequence (P35968 whole entry): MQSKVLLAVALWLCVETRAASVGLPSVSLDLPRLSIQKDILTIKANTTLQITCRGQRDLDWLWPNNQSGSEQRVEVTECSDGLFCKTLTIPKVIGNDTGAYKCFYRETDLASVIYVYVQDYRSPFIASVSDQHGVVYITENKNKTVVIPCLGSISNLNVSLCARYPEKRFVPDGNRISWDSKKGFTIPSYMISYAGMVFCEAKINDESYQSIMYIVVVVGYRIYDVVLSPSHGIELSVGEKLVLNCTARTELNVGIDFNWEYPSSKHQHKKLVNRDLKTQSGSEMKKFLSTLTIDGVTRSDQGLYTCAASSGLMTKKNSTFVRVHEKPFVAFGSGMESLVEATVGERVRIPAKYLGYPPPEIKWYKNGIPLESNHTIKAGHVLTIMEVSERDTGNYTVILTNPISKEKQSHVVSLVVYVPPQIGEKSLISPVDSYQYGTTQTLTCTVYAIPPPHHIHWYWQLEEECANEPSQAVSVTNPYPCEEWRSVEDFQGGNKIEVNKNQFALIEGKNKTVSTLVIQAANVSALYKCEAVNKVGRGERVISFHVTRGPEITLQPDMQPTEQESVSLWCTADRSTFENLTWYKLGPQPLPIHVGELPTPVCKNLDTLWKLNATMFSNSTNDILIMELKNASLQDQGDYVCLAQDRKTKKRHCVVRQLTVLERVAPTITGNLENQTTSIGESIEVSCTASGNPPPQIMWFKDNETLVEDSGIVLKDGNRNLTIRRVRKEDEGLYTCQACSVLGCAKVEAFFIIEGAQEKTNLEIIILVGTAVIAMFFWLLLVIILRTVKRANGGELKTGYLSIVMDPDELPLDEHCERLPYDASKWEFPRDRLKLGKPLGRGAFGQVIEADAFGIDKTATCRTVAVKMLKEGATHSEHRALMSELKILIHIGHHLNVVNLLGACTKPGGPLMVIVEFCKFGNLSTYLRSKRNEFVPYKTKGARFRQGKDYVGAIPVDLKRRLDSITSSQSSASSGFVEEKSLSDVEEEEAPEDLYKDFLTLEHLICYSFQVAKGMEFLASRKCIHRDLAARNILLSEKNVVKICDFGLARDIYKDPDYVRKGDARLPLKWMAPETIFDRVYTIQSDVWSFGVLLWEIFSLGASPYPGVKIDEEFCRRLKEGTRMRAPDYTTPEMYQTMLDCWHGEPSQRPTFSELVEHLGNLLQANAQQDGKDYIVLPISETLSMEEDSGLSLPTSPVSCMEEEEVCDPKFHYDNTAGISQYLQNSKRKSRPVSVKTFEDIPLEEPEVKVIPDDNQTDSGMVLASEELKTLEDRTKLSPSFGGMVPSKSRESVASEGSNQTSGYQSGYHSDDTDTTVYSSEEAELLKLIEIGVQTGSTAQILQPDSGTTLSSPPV

# substanceSmiles, Kd
records = [
    ("Cc1ccc(C(=O)NC2CC2)cc1-c1cc2cnn(-c3ccc(F)cc3F)c2n(C)c1=O", "40 µM"),
    ("Cc1ccc(C(=O)NC2CC2)cc1-c1ccc2c(-c3ccccc3F)nncc2c1", "0.32 µM"),
    ("Cc1ccc(C(=O)NC2CC2)cc1-c1cc2cnn(-c3ccccc3F)c2n(C)c1=O", "40 µM"),
]

* * *

In this section, each of the compounds is paired with its reported fraction unbound.
assayInfo: Plasma protein binding in rat by ultrafiltration method
Type: ADME, cell-free
runParameters: read-out: PPB (converted)

# substanceSmiles, fraction unbound
rows = [
    ("Cc1ccc(C(=O)NC2CC2)cc1-c1cc2cnn(-c3c(F)cccc3F)c2n(C)c1=O", 0.087),
    ("Cc1ccc(C(=O)NC2CC2)cc1-c1cc2cnn(-c3ccc(F)cc3F)c2n(C)c1=O", 0.075),
    ("Cn1c(=O)c(-c2cc(C(=O)NC3CC3)ccc2Cl)cc2cnn(-c3c(F)cccc3F)c21", 0.032),
]
